- experimental.target: human σ1 receptor (Homo sapiens)
- Sequence (Q99720 whole entry): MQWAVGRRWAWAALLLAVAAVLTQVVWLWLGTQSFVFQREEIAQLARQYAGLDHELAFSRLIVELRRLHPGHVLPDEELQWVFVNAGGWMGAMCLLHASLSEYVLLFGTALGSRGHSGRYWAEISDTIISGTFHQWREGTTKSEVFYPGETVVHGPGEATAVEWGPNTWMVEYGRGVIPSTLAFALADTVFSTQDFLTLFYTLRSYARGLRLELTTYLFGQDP
- experimental.protocol: biochemical
- Format: binding
- experimental.conditions: read-out: μ and σ1 dual binding
Structures can show the parent of a compound that is named as a salt.
readout.label: Ki

# Ki of CC1OC2(CCN(CCc3ccccc3)CC2)CN(Cc2ccccc2F)C1=O (stereo not shown) [Example 154, hydrochloride] = < 100 nM

# Ki of O=C1C(CO)OC2(CCN(CCc3ccccc3)CC2)CN1c1ccccc1 (stereo not shown) = < 500 nM

* * *

- experimental.target: human σ1 receptor (Homo sapiens)
- experimental.protocol: biochemical
- Type: binding
- experimental.conditions: read-out: μ and σ1 dual binding
pKi: −log10 of the molar value. Counter-ions that a name gives are not always drawn.
readout.label: pKi

{"molecule": "CC1OC2(CCN(CCc3ccccc3)CC2)CN(c2ncccc2F)C1=O (stereo not shown)", "pKi": "> 7.00"}
{"molecule": "CC1OC2(CCN(CCc3cccc(O)c3)CC2)CN(c2ccccc2F)C1=O (stereo not shown)", "pKi": "> 7.00"}
{"molecule": "CC1OC2(CCN(CCc3cccc([N+](=O)[O-])c3)CC2)CN(c2ccccc2)C1=O (stereo not shown)", "pKi": "< 6.30"}

Attention now shifts to the item below.
# pKi of CC1OC2(CCN(CCc3ccc(C(F)(F)F)cn3)CC2)CN(c2ccccc2)C1=O (stereo not shown) [Example 34, hydrochloride] = < 6.30
